// reported pIC50 per item
Molecular target: UniProt:P18054
Sequence (P18054 whole entry): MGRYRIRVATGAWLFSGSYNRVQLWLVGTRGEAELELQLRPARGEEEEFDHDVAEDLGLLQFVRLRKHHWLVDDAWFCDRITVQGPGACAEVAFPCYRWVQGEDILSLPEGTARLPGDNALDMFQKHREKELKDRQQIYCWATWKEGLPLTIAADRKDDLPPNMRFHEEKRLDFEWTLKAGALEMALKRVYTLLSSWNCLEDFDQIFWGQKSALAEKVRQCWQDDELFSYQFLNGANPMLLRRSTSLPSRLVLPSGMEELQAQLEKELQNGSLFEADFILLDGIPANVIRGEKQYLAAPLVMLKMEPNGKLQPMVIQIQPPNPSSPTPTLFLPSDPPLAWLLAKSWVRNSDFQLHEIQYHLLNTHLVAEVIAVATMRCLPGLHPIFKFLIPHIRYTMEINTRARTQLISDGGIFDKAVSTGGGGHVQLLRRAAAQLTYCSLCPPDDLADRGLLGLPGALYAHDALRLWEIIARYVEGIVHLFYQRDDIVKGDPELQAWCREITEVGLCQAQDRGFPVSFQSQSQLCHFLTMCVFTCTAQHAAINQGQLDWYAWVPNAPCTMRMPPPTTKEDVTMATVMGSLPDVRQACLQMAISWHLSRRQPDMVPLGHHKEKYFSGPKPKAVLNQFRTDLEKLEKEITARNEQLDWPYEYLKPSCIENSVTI
Assay: inhibition of purified recombinant 12-LOX with […] AA as substrate
pIC50: −log10 of the molar value.

- Compound: "CCCCC[C@H](O)/C=C/C=C\\C/C=C\\CCCCCCC(=O)O [15‐HETrE]"
  pIC50: 3.98
- Compound: "CCCCC[C@H](O)/C=C/C=C\\C/C=C\\C/C=C\\CCCC(=O)O [15‐HETE]"
  pIC50: 4.34
- Compound: "CC/C=C\\C[C@H](O)/C=C/C=C\\C/C=C\\C/C=C\\CCCC(=O)O [15‐HEPE]"
  pIC50: 3.85
